target: Short transient receptor potential channel 6 (Mus musculus) (UniProt Q61143); assay: mouse TRPC6 channel inhibitors, confirmation, HEK293 cells, membrane potential dye, duplicate (AID 488960); details: ACh-evoked depolarization, at 10 µM
Sequence (Q61143 whole entry, looked up): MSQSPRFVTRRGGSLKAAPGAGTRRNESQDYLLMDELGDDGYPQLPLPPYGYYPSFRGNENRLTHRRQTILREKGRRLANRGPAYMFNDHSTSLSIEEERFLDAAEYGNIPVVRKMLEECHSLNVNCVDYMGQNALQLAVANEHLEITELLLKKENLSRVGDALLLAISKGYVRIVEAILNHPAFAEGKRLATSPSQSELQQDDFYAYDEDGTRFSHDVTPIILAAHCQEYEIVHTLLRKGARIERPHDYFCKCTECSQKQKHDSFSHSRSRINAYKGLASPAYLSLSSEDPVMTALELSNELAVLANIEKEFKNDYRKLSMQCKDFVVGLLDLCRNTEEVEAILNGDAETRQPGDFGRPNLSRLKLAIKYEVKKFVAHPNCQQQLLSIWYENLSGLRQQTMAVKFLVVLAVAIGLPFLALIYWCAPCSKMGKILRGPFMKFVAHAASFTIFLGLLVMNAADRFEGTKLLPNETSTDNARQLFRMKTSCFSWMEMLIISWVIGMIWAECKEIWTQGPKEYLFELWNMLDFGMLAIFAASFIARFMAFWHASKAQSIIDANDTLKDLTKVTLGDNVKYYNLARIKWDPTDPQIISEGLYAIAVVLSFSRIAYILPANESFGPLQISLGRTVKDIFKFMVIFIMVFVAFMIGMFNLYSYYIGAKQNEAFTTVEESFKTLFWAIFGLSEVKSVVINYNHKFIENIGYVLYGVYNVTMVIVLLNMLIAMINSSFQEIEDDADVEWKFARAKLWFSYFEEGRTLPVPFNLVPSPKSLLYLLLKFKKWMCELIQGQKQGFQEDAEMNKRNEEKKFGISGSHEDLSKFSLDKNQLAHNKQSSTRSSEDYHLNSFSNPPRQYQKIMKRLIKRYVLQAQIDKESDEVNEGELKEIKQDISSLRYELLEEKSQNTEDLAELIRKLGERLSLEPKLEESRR
This is one part of the list. Activity calls are given as the source filed them.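 Rule for the calls: active = fluorescence ratio falls more than 5 SD below the full-stimulation control mean, in both duplicate runs; inactive = the rest.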
Answer with one of the outcomes YES (active), NO (inactive)

[in] Any idea what this test logged for CCCCCCCCCCOC(=O)C[N+](C)(C)CC1CCCCC1O (stereo not drawn) ?
[out] NO

[in] Name the outcome recorded for `CN1CCN(c2nc(Nc3ccc(O)cc3)nc3ccccc23)CC1` in the assay.
[out] YES

[in] Called result for COc1ccccc1OCCNCC(O)COc1cccc2[nH]c3ccccc3c12 (stereo not drawn)
[out] YES

----------
experiment: thallium flux activation in parental CHO cells, counter-screen for KCNQ1 potentiator project (AID 493006); settings: parental CHO-K1 cells, FluxOR thallium flux, at 10 µM;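 for activation: fluorescence ratio of max minus min over baseline after K+ and Tl+ depolarization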
The source made the active and inactive calls.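 Rule for the calls: active = duplicate-averaged activation above buffer control mean plus 5 SD of those controls; inactive = the rest.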
Hi there, use one of these labels in your reply, thanks! true (1) = active, false (0) = inactive

[in] Outcome? `CCOC(=O)CS(=O)(=O)c1nc(-c2ccc(F)cc2)cc(C(F)(F)F)n1`
[out] false (0)

[in] For COc1cc(C(=O)CCN2CCC(c3ccccc3)C2)cc(OC)c1OC (stereo not drawn) , which call appears in the assay record?
[out] false (0)

[in] Could you please tell me the result logged for `Fc1cccc2sc(Nc3nnc(-c4ccccc4)o3)nc12` in this assay?
[out] true (1)

[in] Answer briefly: the call reported for `Cc1ccc(Oc2ccc(NC(=O)Cn3ccsc3=N)cc2)cc1` in this assay.
[out] false (0)

[in] What did this assay record as the result for `O=C(Cn1c(=O)oc2ccccc21)N1CCN(c2ccc(N3CCOCC3)nn2)CC1` ?
[out] false (0)

[in] Record request — test call for `CC(C)c1nc2n[nH]c(N)c2c2c1CSC(C)(C)C2`
[out] false (0)

[in] Would you mind telling me which call this test gave N#CC(c1cccc(Cl)c1)c1ccc2c(C(F)(F)F)cc(C(F)(F)F)nc2n1 (stereo not drawn) ?
[out] true (1)

[in] Returns: the outcome recorded for `Oc1oc(-c2ccccc2)nc1/C=N/c1nccs1` in this assay.
[out] false (0)

[in] Status in this test for `O=C(COC(=O)c1cc(NS(=O)(=O)c2cccs2)ccc1O)Nc1cc(Cl)ccc1Cl` ?
[out] false (0)

[in] Could you kindly confirm the outcome this assay logged for CC1Oc2ccccc2N(CC(=O)N2CCCCCC2)C1=O (stereo not drawn) ?
[out] false (0)

[in] How was `CCCSc1ncnc2c1oc1ccccc12` classified in this test?
[out] false (0)

[in] Per the assay record, what outcome was assigned to `S=c1nn[nH]n1C12CC3CC(CC(C3)C1)C2` ?
[out] true (1)

[in] Hi team, can someone confirm the assay call for `O=C(NC(=S)N1CCCc2ccccc21)c1ccccc1` ?
[out] false (0)

[in] // outcome(item) with item = `O=C(c1ccccc1NS(=O)(=O)c1ccc(Br)cc1)N1CCOCC1`
[out] true (1)

[in] Dear colleague, could you share the recorded outcome for `OCCN1CCN(c2ncnc3c2sc2nc(N4CCOCC4)c4c(c23)CCC4)CC1` when you have a moment?
[out] false (0)

[in] In this assay, the call recorded for `CC(C)CSC1=NSC2=NC(=O)/C(=C\c3cccs3)C(=N)N12` was what?
[out] false (0)

[in] Look up the recorded call for `Cc1noc(C)c1CSc1ncnc2sc3c(c12)CCCCC3` in this test.
[out] true (1)

[in] Hey, what did the test say about `O=C(Nc1nnc(-c2ccc3c(c2)CCCC3)o1)c1ccccc1` ?
[out] true (1)

[in] Recorded call for Cc1ccc(NS(=O)(=O)c2ccc(C(=O)N3CC(C)CC(C)C3)cc2)cc1 (stereo not drawn) ?
[out] true (1)

[in] How was `O=c1c2cc(Cl)ccc2nc(-c2ccc([N+](=O)[O-])cc2)n1O` classified in this test?
[out] true (1)

[in] Which result was noted for this molecule in the test: S=C(NCCc1ccccc1)N1CCn2cccc2C1c1cccnc1 (stereo not drawn)
[out] false (0)

[in] Would you mind telling me which call this test gave `O=C(O)/C=C/C(=O)c1ccc2c(c1)CCc1ccccc1-2` ?
[out] false (0)

[in] Lab log entry: CCn1c(SC(C)C(=O)O)nc2sc3c(c2c1=O)CCC3 (stereo not drawn) — outcome as called in the assay?
[out] true (1)

----------
target: Potassium voltage-gated channel subfamily KQT member 1 (Homo sapiens) (UniProt P51787); assay: KCNQ1 potassium channel potentiators, confirmation, FluxOR thallium flux, CHO cells, duplicates (AID 493007); settings: KCNQ1 cell line, FluxOR thallium flux fluorescence, at 10 µM, % of reference activator effect, buffer zero;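 for Outcome: cells depolarized by a potassium plus thallium sulfate stimulus after compound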
Sequence (P51787 whole entry, looked up): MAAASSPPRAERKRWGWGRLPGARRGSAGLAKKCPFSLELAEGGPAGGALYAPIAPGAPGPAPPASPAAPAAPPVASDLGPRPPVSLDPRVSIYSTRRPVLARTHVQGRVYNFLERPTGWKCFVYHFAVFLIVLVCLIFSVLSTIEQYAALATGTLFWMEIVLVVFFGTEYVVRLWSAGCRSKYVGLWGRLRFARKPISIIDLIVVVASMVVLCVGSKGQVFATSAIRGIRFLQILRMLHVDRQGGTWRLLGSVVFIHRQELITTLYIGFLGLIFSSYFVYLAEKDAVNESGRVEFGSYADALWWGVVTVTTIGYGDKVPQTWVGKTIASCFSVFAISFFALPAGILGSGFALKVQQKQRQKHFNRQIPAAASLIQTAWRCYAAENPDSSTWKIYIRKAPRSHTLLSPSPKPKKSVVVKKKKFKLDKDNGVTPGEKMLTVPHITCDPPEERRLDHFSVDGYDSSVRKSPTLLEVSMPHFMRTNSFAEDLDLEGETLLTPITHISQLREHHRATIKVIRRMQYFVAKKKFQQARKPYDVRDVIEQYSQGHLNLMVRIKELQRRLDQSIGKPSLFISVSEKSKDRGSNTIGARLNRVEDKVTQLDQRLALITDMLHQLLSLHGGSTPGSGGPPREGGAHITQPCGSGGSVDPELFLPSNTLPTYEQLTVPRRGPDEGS
Active and inactive are the calls of the source.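 The calls were made as follows: active = potentiation averaged over duplicate wells exceeding buffer-only control mean by more than 3 SD; inactive = the rest.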
Valid outcomes are listed here; reply with one: active, inactive

[in] Outcome? `CC(C)c1ccc(/C=C2\SC(N3CCOCC3)=NC2=O)cc1`
[out] inactive

[in] Give the logged outcome of this assay for the following molecule: `CCCOc1ccc(C(=O)NNC(=S)NC(=O)c2cc(-c3ccc(Cl)cc3)nc3ccccc23)cc1`
[out] inactive

[in] // outcome(item) with item = `CC(=O)c1c(N2CCOCC2)[nH]c(-c2ccccc2)nc1=S`
[out] active

[in] # fetch the recorded call for `Cc1noc(C)c1CSc1ncnc2sc(C)c(C)c12` here
[out] inactive

[in] Called result for `C=CCn1c(N)c(C(=O)Nc2ccc(C)cc2)sc1=S`
[out] inactive

[in] Test call, this molecule: `COc1ccc2nc(N=Nc3ccc(O)c4ccccc34)sc2c1`
[out] active

----------
target: Potassium voltage-gated channel subfamily KQT member 2 (Rattus norvegicus); assay: rat KCNQ2 channel potentiation, selectivity assay for KCNQ1 potentiator project, KCNQ2-CHO-K1 cells (AID 493009); details: FluxOR thallium flux fluorescence, at 10 µM; hits give high values, scaled: buffer 0, activator control 100;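 note: assay conditions were tuned for KCNQ1 rather than KCNQ2 modulators; signal is max minus min fluorescence divided by baseline after thallium stimulus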
The source made the active and inactive calls.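 The calls were made as follows: active = mean duplicate potentiation above the buffer control mean plus 5 SD of buffer wells; inactive = the rest.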
readout: potentiation

See these solved cases before continuing.
>>> df
                                   molecule                                    target  reported_measurement
0                  C#CC1(NC(=O)NCCCC)CCCCC1  Potassium voltage-gated channel subfamily KQT member 2 (Rattus norvegicus)              inactive
1  Cc1c(Cl)cccc1NC(=O)Cn1c(CCC(=O)O)ccc1-c1ccccc1  Potassium voltage-gated channel subfamily KQT member 2 (Rattus norvegicus)              inactive
2  CC12CCC(C/C1=N\N=C1\NC(=O)/C(=C\c3cccc(Br)c3)S1)C2(C)C (stereo not drawn)  Potassium voltage-gated channel subfamily KQT member 2 (Rattus norvegicus)         154% (active)
3        Cc1ccc(C2=CSC3=NS(=O)(=O)CCN23)cc1  Potassium voltage-gated channel subfamily KQT member 2 (Rattus norvegicus)              inactive
4  Cc1cc(C)cc(OCC(=O)NNC(=O)c2cc3ccccc3o2)c1  Potassium voltage-gated channel subfamily KQT member 2 (Rattus norvegicus)              inactive

Here `CC(=O)N1CCN=C1SCc1ccc(F)cc1` was tested on Potassium voltage-gated channel subfamily KQT member 2 (Rattus norvegicus), and its potentiation came to 329% (active)

potentiation for Potassium voltage-gated channel subfamily KQT member 2 (Rattus norvegicus) with input `C=C1CCN(c2ccc(C(=O)NCc3ccc(C)cc3)cc2[N+](=O)[O-])CC1` equals inactive

potentiation on Potassium voltage-gated channel subfamily KQT member 2 (Rattus norvegicus) for `O=C(Nc1nc2c(Br)cc(Br)cc2c(=O)s1)c1ccco1` is inactive

----------
biological target: Potassium voltage-gated channel subfamily KQT member 1 (Homo sapiens) (UniProt P51787); experiment: KCNQ1 potassium channel potentiators, confirmation, FluxOR thallium flux, CHO cells, duplicates (AID 493007); details: KCNQ1 cell line, FluxOR thallium flux fluorescence, at 10 µM, % of reference activator effect, buffer zero;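 for outcome: cells depolarized by a potassium plus thallium sulfate stimulus after compound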
The source made the active and inactive calls.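 How the source made its calls: active means potentiation averaged over duplicate wells exceeding buffer-only control mean by more than 3 SD; inactive means the rest.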
Reply using exactly one outcome from Yes for active, No for inactive

[in] Returns: the outcome recorded for CC1CC(C)CN(Cc2nc(N)nc(Nc3ccc4ccccc4c3)n2)C1 (stereo unspecified) in this assay.
[out] Yes

[in] In this assay, the call recorded for `O=C(Nc1cc([N+](=O)[O-])ccc1N1CCCC1)c1cccs1` was what?
[out] No

[in] # fetch the recorded call for `CC(C)c1nc2n[nH]c(N)c2c2c1CCCC2` here
[out] No

[in] So what was the verdict on `Cn1nnc(NC(=O)C(c2ccccc2)c2ccccc2)n1` in this test?
[out] No

[in] Hi team, can someone confirm the assay call for `O=C(Nc1ccccc1)C1=C(c2ccccc2)S(=O)(=O)CCS1(=O)=O` ?
[out] No

[in] What is the recorded call for this molecule in the test? `Cc1cc(-c2cccs2)c(C#N)c(=S)[nH]1`
[out] No

[in] Give the logged outcome of this assay for the following molecule: CCC1CCCCN1C(=S)NC(=O)c1cccs1 (stereo unspecified)
[out] Yes

[in] Recorded call for `COc1nccnc1NS(=O)(=O)c1ccc(NC(=S)NC(=O)c2ccccc2F)cc1` ?
[out] No

[in] Short answer needed: outcome of this test for `CCOC(=O)c1sc(NC(=S)NC(=O)c2ccc(OC)cc2)nc1C` ?
[out] No

[in] Could you please tell me the result logged for `Cc1cc(C)cc(-n2ccnc2SCC(=O)Nc2nccs2)c1` in this assay?
[out] No

[in] So what was the verdict on CC1Cc2ccccc2N1C(=S)NC(=O)c1ccc(Cl)cc1Cl (stereo unspecified) in this test?
[out] Yes
